Test system: ovarian cancer cells with (OVCAR8, OVCAR4) or without (OVSAHO, CAOV3) MYC-HSF1 amplification
Experiment: Epigenetic inhibitor drug screen, cell viability (Cell Titer Blue)
Type: cell-based
Settings: 10 uM, 48 hrs; average relative cell viability (vs 1% DMSO) of non-amplified cells (OVSAHO, CAOV3) minus that of MYC-HSF1 amplified cells (OVCAR8, OVCAR4); positive = greater response in amplified cells; 10 µM
quantity_measured: Non Amp - AMP (POC) 10 uM
Express your answer in POC, writing the number without its unit.

A selection of reference data follows.
Cl.O=C([C@@H](Cc1cccc(C(F)(F)F)c1)NS(=O)(=O)c1cc(F)c2c(c1)CCNC2)N1CCCC1 [PFI-2 (hydrochloride)] = 2.189
CC(=O)Nc1ccc(C(=O)Nc2ccccc2N)cc1 = 25.18

Turning now to a further compound:
Form: compound = CCCC(CCC)C(=O)O [Divalproex Sodium] ; Non Amp - AMP (POC) 10 uM = −6.451
